Biological target: Replicase polyprotein 1ab (Severe acute respiratory syndrome coronavirus 2, UniProt P0DTD1)
Assay: Inhibition of MPro of SARS CoV-2 BetaCoV/Wuhan/WIV04/2019 preincubated for 30 mins followed by substrate addition measured for 1 hr by FRET assay
reported_metric: IC50

Ask: Please report IC50 for the following compound: C[C@H](NC(=O)C(c1cccnc1)N(C(=O)/C=C/Cl)c1ccc(-c2ccccc2)cc1)c1ccccc1 (stereo partly specified)
Reply: > 20 µM

Ask: Return the recorded IC50 value; entry: C=C(NC(C)=O)C(=O)N(c1ccc(-c2ccccc2)cc1)C(C(=O)N[C@@H](C)c1ccccc1)c1cccnc1 (stereo partly specified)
Reply: > 20 µM

Ask: Please look at this compound and report its IC50: C#CCC(=O)N(c1ccc(-c2ccccc2)cc1)C(C(=O)N[C@@H](C)c1ccccc1)c1cccnc1 (stereo partly specified)
Reply: 4.63 µM

Ask: Respond only with IC50 recorded for C[C@H](NC(=O)C(c1cccnc1)N(C(=O)C(=O)N1CCN(C)CC1)c1ccc(-c2ccccc2)cc1)c1ccccc1 (stereo partly specified)
Reply: > 20 µM

Ask: Check the records and state IC50 for C[C@H](NC(=O)C(c1cccnc1)N(C(=O)C(C#N)=C1CCCCC1)c1ccc(-c2ccccc2)cc1)c1ccccc1 (stereo partly specified)
Reply: > 20 µM

Ask: Return reported IC50. Input compound: C=CS(=O)(=O)N(c1ccc(-c2ccccc2)cc1)[C@@H](C(=O)N[C@@H](C)c1ccccc1)c1cccnc1
Reply: 0.31 µM

Ask: Provide IC50 value for the following compound: C=C(C(=O)N(c1ccc(-c2ccccc2)cc1)C(C(=O)N[C@@H](C)c1ccccc1)c1cccnc1)c1ccccc1 (stereo partly specified)
Reply: > 20 µM

Ask: Provide one value: measured IC50 of C=C(Br)C(=O)N(c1ccc(-c2ccccc2)cc1)C(C(=O)N[C@@H](C)c1ccccc1)c1cccnc1 (stereo partly specified)
Reply: 4.26 µM

Ask: Identify the reported IC50 for the following entry. CC(C)=CC(=O)N(c1ccc(-c2ccccc2)cc1)C(C(=O)N[C@@H](C)c1ccccc1)c1cccnc1 (stereo partly specified)
Reply: > 20 µM

Ask: Answer with the recorded IC50 of CC(C)/C=C(\C#N)C(=O)N(c1ccc(-c2ccccc2)cc1)C(C(=O)N[C@@H](C)c1ccccc1)c1cccnc1 (stereo partly specified) only.
Reply: > 20 µM

Ask: Specify measured IC50 for C[C@H](NC(=O)C(c1cccnc1)N(C(=O)/C=C/C(=O)O)c1ccc(-c2ccccc2)cc1)c1ccccc1 (stereo partly specified) .
Reply: 12.4 µM
